Target: T1, human GIP receptor (human) (UniProt P48546)
T1 sequence (looked up): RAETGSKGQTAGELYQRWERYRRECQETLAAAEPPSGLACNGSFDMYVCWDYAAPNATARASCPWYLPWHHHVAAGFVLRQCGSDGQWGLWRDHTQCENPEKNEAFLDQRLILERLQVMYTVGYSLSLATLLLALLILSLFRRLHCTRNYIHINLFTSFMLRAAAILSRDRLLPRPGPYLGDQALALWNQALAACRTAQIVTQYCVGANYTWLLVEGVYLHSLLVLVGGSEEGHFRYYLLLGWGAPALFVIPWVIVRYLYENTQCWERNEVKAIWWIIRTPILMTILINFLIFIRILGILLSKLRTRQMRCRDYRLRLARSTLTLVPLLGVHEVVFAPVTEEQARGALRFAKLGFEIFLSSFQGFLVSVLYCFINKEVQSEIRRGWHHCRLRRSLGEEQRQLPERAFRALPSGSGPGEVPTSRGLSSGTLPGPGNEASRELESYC
Test: cell-based or functional assay
*1 amine or outer side, *2 acyl side, *3 side chain or, on linkers, in order; H or OH if unused. Where no end group is shown, it is not given here. Side-chain parts run from the residue outwards. [ ]: non-standard residue; d: D form. The star is where a group is joined. Decanoyl(10-(4-HOOC-PhO)) = O=C(O)c1ccc(OCCCCCCCCCC(=O)*)cc1; αMePhe(2-F) = C[C@](N)(Cc1ccccc1F)C(=O)O; γGlu = O=C(O)[C@H](CCC(=O)[*:2])N[*:1]; C14 diacid = O=C(O)CCCCCCCCCCCCC(=O)*; αMeY = C[C@](N)(Cc1ccc(O)cc1)C(=O)O; αMeL = CC(C)C[C@](C)(N)C(=O)O; Orn = NCCC[C@H](N)C(=O)O; AEEA = NCCOCCOCC(=O)O; Aib = CC(C)(N)C(=O)O
Values of cAMP EC50 greater than or equal to 0.01 nM map to MET; values below map to NOT MET.

binder: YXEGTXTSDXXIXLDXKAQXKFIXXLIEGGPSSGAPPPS (Y-Aib-EGT-αMeF(2F)-TSD-4Pal-Aib-I-αMeL-LD-Orn-K((2-[2-(2-Amino-ethoxy)-ethoxy]-acetyl)-(γ-Glu)-CO-(CH2)10-CH3)AQ-Aib-K((2-[2-(2-Amino-ethoxy)-ethoxy]-acetyl)-(γ-Glu)-CO-(CH2)10-CH3)FI-(D-Glu)-αMeY-LIEGGPSSGAPPPS-NH2) [Example 426]
class_label: MET
--
binder: YXEGTXTSDXXIXLDXKAQXTFIXXLIKGGPSSGAPPPS (Y-Aib-EGT-αMeF(2F)-TSD-4Pal-Aib-I-αMeL-LD-Orn-K((2-[2-(2-Amino-ethoxy)-ethoxy]-acetyl)2-(γ-Glu)-CO-(CH2)10-CH3)AQ-Aib-TFI-(D-Glu)-αMeY-LIK((2-[2-(2-Amino-ethoxy)-ethoxy]-acetyl)2-(γ-Glu)-CO-(CH2)10-CH3)GGPSSGAPPPS-NH2) [Example 419]
class_label: NOT MET
--
binder: Y[Aib]EGT[αMePhe(2-F)]TSDV[Aib]I[αMeL]LD[Orn]K([AEEA-AEEA-C14 diacid])AQ[Aib]EFI[dE][αMeY]LIK([AEEA-AEEA-C14 diacid])GGPSSGAPPPS-NH2 [Example 389]
class_label: MET
--
binder: YXEGTXTSDXXIXLDXIAQXKFIXXLIKGGPSSGAPPPS (Y-Aib-EGT-αMeF(2F)-TSD-4Pal-Aib-I-αMeL-LD-Orn-IAQ-Aib-K((2-[2-(2-Amino-ethoxy)-ethoxy]-acetyl)-(γ-Glu)-CO-(CH2)12-CO2H)FI-(D-Glu)-αMeY-LIK((2-[2-(2-Amino-ethoxy)-ethoxy]-acetyl)-(γ-Glu)-CO-(CH2)12-CO2H)GGPSSGAPPPS-NH2) [Example 340]
class_label: MET
--
binder: Y[Aib]EGT[αMePhe(2-F)]TSDV[Aib]I[αMeL]LD[Orn]K([AEEA-AEEA-γGlu-Decanoyl(10-(4-HOOC-PhO))])AQ[Aib]EFI[dE][αMeY]LIEGGPSSGAPPPSK([AEEA-AEEA-γGlu-Decanoyl(10-(4-HOOC-PhO))])-NH2 [Example 380]
class_label: MET
--
binder: YXEGTXTSDYXIXLDXKAQXKFIXXLIEGGPSSGAPPPS (Y-Aib-EGT-αMeF(2F)-TSDY-Aib-I-αMeL-LD-Orn-K((2-[2-(2-Amino-ethoxy)-ethoxy]-acetyl)2-(γ-Glu)-CO-(CH2)10-CH3)AQ-Aib-K((2-[2-(2-Amino-ethoxy)-ethoxy]-acetyl)2-(γ-Glu)-CO-(CH2)10-CH3)FI-(D-Glu)-αMeY-LIEGGPSSGAPPPS-NH2) [Example 300]
class_label: MET
--
binder: Y[Aib]EGT[αMePhe(2-F)]TSDV[Aib]I[αMeL]LD[Orn]K([AEEA-AEEA-γGlu-Decanoyl(10-(4-HOOC-PhO))])AQ[Aib]K([AEEA-AEEA-γGlu-Decanoyl(10-(4-HOOC-PhO))])FI[dE][αMeY]LI[Orn]GGPSSGAPPPS-NH2 [Example 410]
class_label: MET
--
binder: YXEGTXTSDKXIXLDXKAQXEFIXXLIEGGPSSGAPPPS (Y-Aib-EGT-αMeF(2F)-TSDK((2-[2-(2-Amino-ethoxy)-ethoxy]-acetyl)-(γ-Glu)-CO-(CH2)10-CH3)-Aib-I-αMeL-LD-Orn-K((2-[2-(2-Amino-ethoxy)-ethoxy]-acetyl)-(γ-Glu)-CO-(CH2)10-CH3)AQ-Aib-EFI-(D-Glu)-αMeY-LIEGGPSSGAPPPS-NH2) [Example 425]
class_label: NOT MET
--
binder: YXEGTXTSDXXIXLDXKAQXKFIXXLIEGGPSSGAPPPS (Y-Aib-EGT-αMeF(2F)-TSD-4Pal-Aib-I-αMeL-LD-Orn-K((2-[2-(2-Amino-ethoxy)-ethoxy]-acetyl)-(γ-Glu)-CO-(CH2)12-CO2H)AQ-Aib-K((2-[2-(2-Amino-ethoxy)-ethoxy]-acetyl)-(γ-Glu)-CO-(CH2)12-CO2H)FI-(D-Glu)-αMeY-LIEGGPSSGAPPPS-NH2) [Example 336]
class_label: MET
--
binder: YXEGTXTSDXXIXLDXKAQXEFIXXLIKGGPSSGAPPPS (Y-Aib-EGT-αMeF(2F)-TSD-4Pal-Aib-I-αMeL-LD-Orn-K((2-[2-(2-Amino-ethoxy)-ethoxy]-acetyl)2-CO-(CH2)12-CO2H)AQ-Aib-EFI-(D-Glu)-αMeY-LIK((2-[2-(2-Amino-ethoxy)-ethoxy]-acetyl)2-CO-(CH2)12-CO2H)GGPSSGAPPPS-NH2) [Example 387]
class_label: MET
